Target Under Test: P-glycoprotein (P-gp/ABCB1) (Homo sapiens)
Measurement Protocol: Vesicular transport assay, P-gp-mediated NMQ uptake in HEK293 membrane vesicles
Outcome Measure: IC50
Could you write the number and then its unit?

Request: Would you mind telling me what IC50 value was observed for OC(c1cc(C(F)(F)F)nc2c(C(F)(F)F)cccc12)C1CCCCN1 (stereo not shown) ?
Result: 72 µM

###

Target Under Test: breast cancer resistance protein (BCRP/ABCG2) (Homo sapiens, UniProt Q9UNQ0)
Sequence (Q9UNQ0 whole entry): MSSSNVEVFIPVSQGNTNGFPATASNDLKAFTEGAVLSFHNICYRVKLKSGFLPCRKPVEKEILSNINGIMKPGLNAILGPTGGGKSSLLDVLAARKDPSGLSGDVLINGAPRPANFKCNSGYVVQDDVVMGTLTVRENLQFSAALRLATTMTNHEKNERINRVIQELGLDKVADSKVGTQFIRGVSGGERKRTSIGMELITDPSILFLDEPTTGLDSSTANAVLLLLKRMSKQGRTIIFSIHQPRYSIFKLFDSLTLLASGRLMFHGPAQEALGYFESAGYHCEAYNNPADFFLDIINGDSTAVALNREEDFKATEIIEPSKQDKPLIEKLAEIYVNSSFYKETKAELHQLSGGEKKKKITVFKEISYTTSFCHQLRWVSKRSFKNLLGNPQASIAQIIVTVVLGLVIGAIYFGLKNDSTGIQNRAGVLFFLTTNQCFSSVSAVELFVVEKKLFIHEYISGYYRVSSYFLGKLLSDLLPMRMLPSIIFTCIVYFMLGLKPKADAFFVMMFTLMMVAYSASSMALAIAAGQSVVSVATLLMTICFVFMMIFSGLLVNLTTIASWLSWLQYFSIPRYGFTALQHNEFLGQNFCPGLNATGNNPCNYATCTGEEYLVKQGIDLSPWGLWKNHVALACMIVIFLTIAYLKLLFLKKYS
Measurement Protocol: Vesicular transport assay, BCRP-mediated estrone sulphate uptake in HEK293 membrane vesicles
Method: Human P-gp, BCRP, BSEP and MRP1-4 had previously been cloned into the Gateway pDONR221 vector. […] Gateway cloning was used to transfer the genes into a VSV-G improved pFastBacDual vector for mammalian cell transduction. […] Cells were harvested three days post transduction by a 5-min centrifugation step at 3,000 g. […] Protein concentration in these vesicles was determined using the Bio-Rad protein assay, vesicles were flash-frozen in N2 and stored at -80°C. […]
Outcome Measure: IC50 (µM)
The reply should contain only the number, in µM.

Request: I have this molecule here, OC(c1cc(C(F)(F)F)nc2c(C(F)(F)F)cccc12)C1CCCCN1 (stereo not drawn) , and I need its recorded IC50.
Result: 18

Request: Now consider O=C1C(O)=C([C@H]2CC[C@H](c3ccc(Cl)cc3)CC2)C(=O)c2ccccc21 .
Result: 0.23

Request: Input [H]/N=C(\N/C(=N/[H])Nc1ccc(Cl)cc1)NC(C)C
Result: 118

###

Target Under Test: breast cancer resistance protein (BCRP/ABCG2) (Homo sapiens)
Measurement Protocol: Vesicular transport assay, BCRP-mediated estrone sulphate uptake in HEK293 membrane vesicles
Run Parameters: 100 μM compound; estrone sulphate 74 nM; solvent control = 100% transport
Please provide measured BCRP-mediated estrone sulphate transport, percentage of solvent control for the entries that follow.
A bare number is not enough; add the unit after it.

Request: Query BCRP-mediated estrone sulphate transport, percentage of solvent control on breast cancer resistance protein (BCRP/ABCG2) (Homo sapiens) for CCN(CC)CCCC(C)Nc1ccnc2cc(Cl)ccc12 (stereo not drawn)
Result: 69%

Request: Could you do the same for O=C1C(O)=C([C@H]2CC[C@H](c3ccc(Cl)cc3)CC2)C(=O)c2ccccc21 , please?
Result: 22%

Request: Same again, this time with CCCCN(CCCC)CC(O)c1cc(Cl)cc2c1-c1ccc(Cl)cc1/C2=C/c1ccc(Cl)cc1 (stereo not drawn)
Result: 44%

Request: C[C@H]1[C@@H](O)O[C@@H]2O[C@@]3(C)CC[C@H]4[C@H](C)CC[C@@H]1[C@@]24OO3 [DHA, dihydroartemisinin]
Result: 70%

Request: Another: [H]/N=C(\N/C(=N/[H])Nc1ccc(Cl)cc1)NC(C)C
Result: 36%

Request: Next compound: OC(c1cc(C(F)(F)F)nc2c(C(F)(F)F)cccc12)C1CCCCN1 (stereo not drawn)
Result: 8.5%

###

Target Under Test: P-glycoprotein (P-gp/ABCB1) (Homo sapiens, UniProt P08183)
Sequence (P08183 whole entry): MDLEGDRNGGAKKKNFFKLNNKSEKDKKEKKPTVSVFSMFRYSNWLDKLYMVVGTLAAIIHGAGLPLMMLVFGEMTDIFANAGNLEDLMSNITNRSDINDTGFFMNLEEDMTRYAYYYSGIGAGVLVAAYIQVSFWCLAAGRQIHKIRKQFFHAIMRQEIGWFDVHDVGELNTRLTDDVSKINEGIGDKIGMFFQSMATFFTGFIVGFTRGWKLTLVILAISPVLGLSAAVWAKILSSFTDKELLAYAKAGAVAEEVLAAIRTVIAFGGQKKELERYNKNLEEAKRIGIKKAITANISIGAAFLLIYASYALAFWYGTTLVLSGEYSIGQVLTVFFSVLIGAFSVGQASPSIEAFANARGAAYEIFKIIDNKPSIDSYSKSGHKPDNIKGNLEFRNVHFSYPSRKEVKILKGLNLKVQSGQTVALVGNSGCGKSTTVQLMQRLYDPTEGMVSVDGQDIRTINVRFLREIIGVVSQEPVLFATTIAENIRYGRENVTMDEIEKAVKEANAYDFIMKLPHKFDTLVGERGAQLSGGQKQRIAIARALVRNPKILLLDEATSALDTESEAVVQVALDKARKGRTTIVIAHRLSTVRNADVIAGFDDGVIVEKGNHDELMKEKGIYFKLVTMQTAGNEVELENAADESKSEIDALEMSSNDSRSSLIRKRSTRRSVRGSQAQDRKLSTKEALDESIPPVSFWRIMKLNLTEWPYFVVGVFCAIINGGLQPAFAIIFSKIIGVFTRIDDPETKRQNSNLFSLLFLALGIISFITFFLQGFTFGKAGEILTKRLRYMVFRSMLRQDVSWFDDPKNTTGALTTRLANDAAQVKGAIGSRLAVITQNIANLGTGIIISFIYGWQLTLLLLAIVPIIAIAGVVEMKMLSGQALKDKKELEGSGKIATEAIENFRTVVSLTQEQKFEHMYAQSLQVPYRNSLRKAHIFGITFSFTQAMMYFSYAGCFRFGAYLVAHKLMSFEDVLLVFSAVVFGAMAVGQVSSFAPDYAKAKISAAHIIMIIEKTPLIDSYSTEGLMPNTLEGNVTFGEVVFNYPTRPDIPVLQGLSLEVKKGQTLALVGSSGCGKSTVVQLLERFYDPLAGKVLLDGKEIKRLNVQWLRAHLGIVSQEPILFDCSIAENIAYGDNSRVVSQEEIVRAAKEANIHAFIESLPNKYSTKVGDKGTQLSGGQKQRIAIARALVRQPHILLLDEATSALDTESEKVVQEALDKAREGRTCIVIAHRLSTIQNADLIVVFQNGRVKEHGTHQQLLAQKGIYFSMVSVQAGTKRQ
Measurement Protocol: Vesicular transport assay, P-gp-mediated NMQ uptake in HEK293 membrane vesicles
Run Parameters: 100 μM compound; NMQ 7 nM radio-labelled + 90 nM unlabelled; solvent control = 100% transport
Outcome Measure: P-gp-mediated NMQ transport, percentage of solvent control (%)
A number alone suffices; assume %.

Request: Form field: reported P-gp-mediated NMQ transport, percentage of solvent control of OC(c1cc(C(F)(F)F)nc2c(C(F)(F)F)cccc12)C1CCCCN1 (stereo not shown)
Result: 30

Request: And for CCN(CC)CCCC(C)Nc1ccnc2cc(Cl)ccc12 (stereo not shown) ?
Result: 50

Request: Also C[C@H]1[C@@H](O)O[C@@H]2O[C@@]3(C)CC[C@H]4[C@H](C)CC[C@@H]1[C@@]24OO3 [DHA, dihydroartemisinin] ?
Result: 112

Request: Similarly, [H]/N=C(\N/C(=N/[H])Nc1ccc(Cl)cc1)NC(C)C ?
Result: 76
